Target: CaCYP51 (Candida albicans, UniProt P10613)
Construct: made in house; host or cells: Escherichia coli
Sequence (P10613 whole entry): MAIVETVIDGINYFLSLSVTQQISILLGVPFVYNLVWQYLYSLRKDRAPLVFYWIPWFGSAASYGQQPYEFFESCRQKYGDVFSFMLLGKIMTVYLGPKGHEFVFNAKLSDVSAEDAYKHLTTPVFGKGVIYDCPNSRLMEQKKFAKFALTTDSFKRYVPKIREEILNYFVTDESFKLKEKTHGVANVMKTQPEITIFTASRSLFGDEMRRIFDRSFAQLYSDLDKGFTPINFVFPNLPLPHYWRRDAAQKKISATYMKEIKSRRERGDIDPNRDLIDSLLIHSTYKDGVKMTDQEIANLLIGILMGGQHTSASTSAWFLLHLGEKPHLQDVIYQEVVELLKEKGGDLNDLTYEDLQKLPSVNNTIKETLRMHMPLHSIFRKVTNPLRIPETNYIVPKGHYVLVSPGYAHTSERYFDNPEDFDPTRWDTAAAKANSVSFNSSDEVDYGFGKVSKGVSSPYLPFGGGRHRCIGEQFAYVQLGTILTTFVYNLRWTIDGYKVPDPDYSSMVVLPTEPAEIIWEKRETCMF
Assay: biochemical
measuredAttribute: IC50 (µM)
Give the value, in units of µM, as a plain number.

Which measured IC50 value corresponds to OC(Cn1cncn1)(Cn1cncn1)c1ccc(F)cc1F [fluconazole, reference compound] ?
0.31

====

Target: CaCYP51 (Candida albicans, UniProt P10613)
Construct: made in house; host or cells: Escherichia coli
Assay: biochemical
Conditions: 1 μM CaCYP51, lanosterol as substrate, curve-fitted; read-out: CaCYP51 IC50
Procedure: […]. […] […]. CYP51 reconstitution assays. IC50 values were determined for individual azole compounds18, 30 using lanosterol as substrate. Azoles were introduced using 2.5 μL of stock solutions in DMSO. CaCYP51 assays contained 1 μM CaCYP51 and 2 μM Homo sapiens cytochrome P450 reductase (HsCPR – UniProtKB accession number P16435) and were incubated for 20 min at 37 °C. HsCYP51 assays contained 0.25 μM Δ60HsCYP51 and 1 μM HsCPR and were incubated for 10 min at 37 °C. […]
measuredAttribute: IC50 (µM)
Give the value, in units of µM, as a plain number.

Which measured IC50 value corresponds to O=C(NCc1ccc(Cl)cc1)C(Cn1cncn1)c1ccccc1 (stereo not drawn) ?
4.32

Proceed to O=C(NCc1ccc(Cl)cc1)C(Cn1ccnc1)c1ccccc1 (stereo not drawn)
1.01

Proceed to O=C(NCc1ccc(NS(=O)(=O)c2ccccc2)cc1)C(Cn1cncn1)c1ccccc1 (stereo not drawn)
0.54

Proceed to O=C(NCc1ccc(Cl)cc1Cl)C(Cn1ccnc1)c1ccccc1 (stereo not drawn)
0.99

Proceed to COc1ccc(CNC(=O)C(Cn2ccnc2)c2ccccc2)cc1OC (stereo not drawn)
6.15

Proceed to COc1ccc(CNC(=O)C(Cn2ccnc2)c2ccccc2)cc1 (stereo not drawn)
0.91

Proceed to O=C(NCc1ccc(C(F)(F)F)cc1)C(Cn1ccnc1)c1ccccc1 (stereo not drawn)
2.21

Proceed to O=C(NCc1ccc(NS(=O)(=O)c2ccc(Cl)cc2)cc1)C(Cn1cncn1)c1ccccc1 (stereo not drawn)
0.33

Proceed to O=C(NCc1ccc(Cl)cc1)C(Cn1ccnc1)c1ccc(Cl)cc1 (stereo not drawn)
0.39
